This collection of values is drawn from ChEMBL document CHEMBL4229545.

molecular target: Cannabinoid receptor 2 (Homo sapiens); assay: Agonist activity at recombinant human Cb2 receptor expressed in HEK293 cells assessed as inhibition of forskolin-stimulated cAMP levels relative to CP-55940; type: functional, cell-based
Sequence (P34972 whole entry): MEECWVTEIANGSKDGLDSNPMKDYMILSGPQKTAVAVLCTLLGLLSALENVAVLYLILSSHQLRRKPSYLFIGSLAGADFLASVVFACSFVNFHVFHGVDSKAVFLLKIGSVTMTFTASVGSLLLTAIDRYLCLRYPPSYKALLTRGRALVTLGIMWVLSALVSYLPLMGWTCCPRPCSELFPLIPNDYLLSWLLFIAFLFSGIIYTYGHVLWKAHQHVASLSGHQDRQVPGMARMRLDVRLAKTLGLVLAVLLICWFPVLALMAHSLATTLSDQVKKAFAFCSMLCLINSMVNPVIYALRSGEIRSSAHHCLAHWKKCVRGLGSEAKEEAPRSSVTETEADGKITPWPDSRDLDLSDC
measure_name: Emax (%)
Respond numerically; units are % and should not be typed.

# return recorded Emax for input CC1=CC[C@H]2[C@H](C1)c1c(O)cc(/C(C)=N/OCCN3CCCCC3)cc1OC2(C)C
147

# return recorded Emax for input CC1=CC[C@H]2[C@H](C1)c1c(O)cc(/C(C)=N/OCCCC(F)(F)F)cc1OC2(C)C
43

# return recorded Emax for input CC1=CC[C@H]2[C@H](C1)c1c(O)cc(/C(C)=N\OCCCC#N)cc1OC2(C)C
35

# return recorded Emax for input CC1=CC[C@H]2[C@H](C1)c1c(O)cc(/C(C)=N/OCCOc3ccccc3)cc1OC2(C)C
99
